- Assay explanation: Updated stage 1 / stage 2 population pharmacokinetic analysis
- Type: in vivo, human
- Condition notes: human, plasma, oral, Vc/F (θ3) apparent volume of distribution of the central compartment, Estimate ± SE, stage 2 final model
Measured attribute: Vd/F (L)
// units = L; emit number, no label

Quick one: Vd/F of `COc1ccc(-n2nc(C(N)=O)c3c2C(=O)N(c2ccc(N4CCCCC4=O)cc2)CC3)cc1` ?
30

---

- Type: in vivo, human
- Condition notes: human, plasma, oral
Measured attribute: CL renal (mL/min)
// return numeric value only (unit: mL/min, not printed)

What measured CL renal goes with `COc1ccc(-n2nc(C(N)=O)c3c2C(=O)N(c2ccc(N4CCCCC4=O)cc2)CC3)cc1` ?
26.7

---

- Assay explanation: Updated stage 1 / stage 2 population pharmacokinetic analysis
- Format: in vivo, human
- Condition notes: human, plasma, oral, Vc/F (θ3) apparent volume of distribution of the central compartment, Estimate ± SE, updated stage 1 final model
Measured attribute: Vd/F
Give your result as the value with the unit written after it.

Return reported Vd/F; argument: COc1ccc(-n2nc(C(N)=O)c3c2C(=O)N(c2ccc(N4CCCCC4=O)cc2)CC3)cc1 [apixaban]
29.8 L

---

- Type: in vivo, human
- Condition notes: human, plasma, oral
Measured attribute: Vd/F (L)
Use L as the unit, but write only the number.

Bench note: what Vd/F did `COc1ccc(-n2nc(C(N)=O)c3c2C(=O)N(c2ccc(N4CCCCC4=O)cc2)CC3)cc1` show?
30

Data credit: paper PMC6263664
